Item-by-item account of pIC50
ASSAYED_TARGET: UniProt:P32246
TEST_METHOD_NOTES: functional cellular assay measuring calcium flux in CCR1 transfected cells (block of CCR1/MIP-1α interaction)
TEST_CONDITIONS: cells stably expressing recombinant CCR1 and G-alpha-16, MIP-1alpha added at EC80
Procedure: Compounds are assessed for the ability to block the interaction of CCR1 and MIP-1α in a functional cellular assay measuring calcium flux in CCR1 transfected cells. Non-adherent cells purchased from Chemicon Corporation (HTS005C), stably expressing recombinant CCR1 and G-alpha-16 are grown in RPMI 1640 medium (Mediatech 10-080-CM) supplemented with 10% FBS, 0.4 mg/mL Geneticin and penicillin/streptomycin. […] All plates must be read within 4 hours of the start of dye-loading. […]
Just so you know, pIC50 here is -log10 of the concentration in molar units; reply with that number alone.

Before answering, review these 5 worked examples.
# SMILES_STR, pIC50
measured = [
    ("COC(=O)C1(NC(=O)c2cccc(C3(NC(=O)c4cncc5c4cnn5-c4ccc(F)cc4)CC3)c2)CC1", 7.01),
    ("O=C(O)c1cccc(C2(NC(=O)c3cncc4c3cnn4-c3ccc(F)cc3)CC2)c1", 7.57),
    ("O=C(NC1(c2ccc(F)cc2)CC1)c1cncc2c1cnn2-c1ccc(F)cc1", 7.12),
    ("O=C(NC1(c2cccc(C(F)(F)F)c2)CC1)c1cncc2c1cnn2-c1ccc(F)cc1", 9.40),
    ("NC(=O)c1cccc(C2(NC(=O)c3cncc4c3cnn4-c3ccc(F)cc3)CC2)c1", 7.40),
]

Q. Identify the measured pIC50 of O=C(NC1(c2ccc(Br)cn2)CC1)c1cncc2c1cnn2-c1ccc(F)cc1 for UniProt:P32246.
A. 8.05

Q. For UniProt:P32246, provide pIC50 of O=C(NC1(c2ncc(Br)cn2)CC1)c1cncc2c1cnn2-c1ccc(F)cc1 please.
A. 7.35

Q. What measured pIC50 is associated with O=C(NC1(c2cccnc2)CC1)c1cncc2c1cnn2-c1ccc(F)cc1 on UniProt:P32246?
A. 7.06

Q. Hello, I am looking for reported pIC50 with UniProt:P32246 for CS(=O)(=O)c1cc(C2(NC(=O)c3cccc4c3cnn4-c3ccc(F)cc3)CC2)ccn1 . Could you help?
A. 8.40

----------
ASSAYED_TARGET: CCR1 (Homo sapiens, UniProt P32246)
Sequence (P32246 whole entry): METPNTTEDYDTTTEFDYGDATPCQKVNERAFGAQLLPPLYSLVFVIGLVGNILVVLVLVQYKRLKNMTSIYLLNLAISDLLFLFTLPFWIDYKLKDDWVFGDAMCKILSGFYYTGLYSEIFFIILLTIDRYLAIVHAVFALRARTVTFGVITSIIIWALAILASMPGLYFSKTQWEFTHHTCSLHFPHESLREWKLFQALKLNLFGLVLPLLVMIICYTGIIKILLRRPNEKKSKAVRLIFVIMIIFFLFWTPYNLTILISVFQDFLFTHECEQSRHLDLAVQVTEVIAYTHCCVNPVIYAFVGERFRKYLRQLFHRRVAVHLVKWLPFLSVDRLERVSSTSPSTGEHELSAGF
TEST_METHOD_NOTES: functional cellular assay measuring calcium flux in CCR1 transfected cells (block of CCR1/MIP-1α interaction)
TEST_CONDITIONS: cells stably expressing recombinant CCR1 and G-alpha-16, MIP-1alpha added at EC80
Labelling: IC50 reported below 10 nM becomes MET; at or above becomes NOT MET.

# SMILES_STR, ASSIGNED_CATEGORY
data = [
    ("COc1ccc(C2(NC(=O)c3cncc4c3cnn4-c3ccc(F)cc3)CCC2)cc1", "NOT MET"),
]

Q. Hello, I'm reviewing records and need to know if IC50 of COC(=O)CCS(=O)(=O)c1cccc(C2(NC(=O)c3cncc4c3cnn4-c3ccc(F)cc3)CC2)c1 is below 10 nM. Could you check?
A. NOT MET

Q. Does the reported IC50 of the following compound sit strictly below 10 nM? Cc1nc(C2(NC(=O)c3cncc4c3cnn4-c3ccc(F)cc3)CC2)cs1
A. NOT MET

Q. A record lists COc1ccnc(C2(NC(=O)c3cncc4c3cnn4-c3ccc(F)cc3)CC2)c1 . Is its IC50 below 10 nM?
A. NOT MET

Q. Just wondering, is IC50 of CC(C)(C)OC(=O)NCc1ccc(C2(NC(=O)c3cncc4c3cnn4-c3ccc(F)cc3)CC2)nc1 below 10 nM?
A. NOT MET

Q. I wonder whether COc1ccc(C2(NC(=O)c3cncc4c3cnn4-c3ccc(F)cc3)CC2)cc1 has IC50 below 10 nM. Can you tell?
A. NOT MET

Q. Criterion: IC50 strictly below 10 nM. Is it met by O=C(NC1(c2ccnc(Br)c2)CC1)c1cncc2c1cnn2-c1ccc(F)cc1 ?
A. MET

Q. I wonder whether CNC(=O)c1cccc(C2(NC(=O)c3cncc4c3cnn4-c3ccc(F)cc3)CC2)c1 has IC50 below 10 nM. Can you tell?
A. MET

Q. Lab note: confirm whether the reported IC50 for this compound is below 10 nM, equality not counting. compound: CS(=O)(=O)c1cc(C2(NC(=O)c3cc(Br)cc4c3cnn4-c3ccc(F)cc3)CC2)ccn1
A. MET

Q. Is the reported IC50 for O=C(NC1(c2nc(C3CC3)no2)CC1)c1cncc2c1cnn2-c1ccc(F)cc1 strictly below 10 nM?
A. NOT MET

Q. Please indicate whether the reported IC50 of NS(=O)(=O)c1ccc(C2(NC(=O)c3cncc4c3cnn4-c3ccc(F)cc3)CC2)cn1 is strictly below 10 nM.
A. MET

Q. Is 10 nM strictly greater than the compound's reported IC50? compound: COC(=O)c1cccc(C2(NC(=O)c3cncc4c3cnn4-c3ccc(F)cc3)CC2)c1
A. NOT MET

Q. Lab note: IC50 threshold 10 nM. Does this compound come in strictly under it? Cc1ccccc1C1(NC(=O)c2cncc3c2cnn3-c2ccc(F)cc2)CC1
A. NOT MET

Q. Quick check: does CC(C)(C)OC(=O)NCc1ccnc(C2(NC(=O)c3cncc4c3cnn4-c3ccc(F)cc3)CC2)c1 have IC50 under 10 nM?
A. NOT MET

Q. # strict comparison: is reported IC50 < 10 nM? input = COC(=O)CNC(=O)c1cccc(C2(NC(=O)c3cncc4c3cnn4-c3ccc(F)cc3)CC2)c1
A. MET

Q. Would you kindly verify if IC50 of N#CCNC(=O)c1cccc(C2(NC(=O)c3cncc4c3cnn4-c3ccc(F)cc3)CC2)c1 is strictly less than 10 nM?
A. NOT MET

Q. Confirm or reject: IC50 of O=C(NC1(c2ccnc(Br)c2)CCC1)c1cncc2c1cnn2-c1ccc(F)cc1 lies strictly below 10 nM
A. MET

Q. Consider O=C(O)c1ccc(C2(NC(=O)c3cncc4c3cnn4-c3ccc(F)cc3)CC2)cc1 . Does its IC50 lie strictly below 10 nM?
A. NOT MET

Q. Given Cc1cccc(C2(NC(=O)c3cncc4c3cnn4-c3ccc(F)cc3)CC2)c1 , is recorded IC50 strictly lower than 10 nM?
A. NOT MET

Q. Criterion: IC50 strictly below 10 nM. Is it met by COc1cccc(C2(NC(=O)c3cncc4c3cnn4-c3ccc(F)cc3)CC2)c1 ?
A. MET

Q. Problem: For the compound CS(=O)(=O)c1ccc(C2(NC(=O)c3cncc4c3cnn4-c3ccc(F)cc3)CC2)o1 , is IC50 under 10 nM?
A. MET

----------
ASSAYED_TARGET: CCR1 (Homo sapiens)
TEST_METHOD_NOTES: functional cellular assay measuring calcium flux in CCR1 transfected cells (block of CCR1/MIP-1α interaction)
TEST_CONDITIONS: cells stably expressing recombinant CCR1 and G-alpha-16, MIP-1alpha added at EC80
PROPERTY: IC50 (µM)
Report the figure in µM without appending any unit label.

# SMILES_STR, ENDPOINT_UNIT, RESULT_NUMBER
data = [
    ("CNC(=O)CNC(=O)c1cccc(C2(NC(=O)c3cncc4c3cnn4-c3ccc(F)cc3)CC2)c1", "µM", 0.078),
]

Q. Given the compound CS(=O)(=O)c1cc(C2(NC(=O)c3cc(C#N)cc4c3cnn4-c3ccc(F)cc3)CC2)ccn1 , what is its reported IC50?
A. 0.0001

Q. Could you tell me which IC50 is on file for COC(=O)[C@H](C)NC(=O)c1cccc(C2(NC(=O)c3cncc4c3cnn4-c3ccc(F)cc3)CC2)c1 ?
A. 0.08

Q. Endpoint output: IC50 of O=C(NC1(c2ccncc2)CC1)c1cncc2c1cnn2-c1ccc(F)cc1 . Value?
A. 0.018

Q. Reported IC50 for O=C(NC1(c2cc(I)ccn2)CC1)c1cncc2c1cnn2-c1ccc(F)cc1 : what is it?
A. 0.002

Q. Dear colleague, I am looking for the recorded IC50 of the following compound: CN(C)c1cccc(C2(NC(=O)c3cncc4c3cnn4-c3ccc(F)cc3)CC2)n1
A. 0.003

Q. Look at this compound and give its reported IC50. O=C(NC1(c2ccc(Cl)cc2)CC1)c1cncc2c1cnn2-c1ccc(F)cc1
A. 0.01

Q. IC50 lookup needed for CC(=O)N(C)c1ccc(C2(NC(=O)c3cncc4c3cnn4-c3ccc(F)cc3)CC2)cn1 , thanks.
A. 0.02

Q. # query: IC50 of entry O=C(NC1(c2ccc(N3CCOCC3)nc2)CC1)c1cncc2c1cnn2-c1ccc(F)cc1
A. 0.006

----------
ASSAYED_TARGET: CCR1 (Homo sapiens)
TEST_METHOD_NOTES: functional cellular assay measuring calcium flux in CCR1 transfected cells (block of CCR1/MIP-1α interaction)
TEST_CONDITIONS: cells stably expressing recombinant CCR1 and G-alpha-16, MIP-1alpha added at EC80
pIC50: −log10 of the molar value.
# binarize pIC50: threshold 8 inclusive, high side condition met, low side condition not met

Worked examples, 6 molecules total:
# SMILES_STR, ASSIGNED_CATEGORY
data = [
    ("CNc1ccc(C2(NC(=O)c3cncc4c3cnn4-c3ccc(F)cc3)CC2)cn1", "condition not met"),
    ("O=C(NC1(c2ccccc2)CC1)c1cncc2c1cnn2-c1ccc(F)cc1", "condition not met"),
    ("NS(=O)(=O)c1cccc(C2(NC(=O)c3cncc4c3cnn4-c3ccc(F)cc3)CC2)c1", "condition met"),
    ("CS(=O)(=O)c1cccc(C2(NC(=O)c3cncc4c3cnn4-c3ccc(F)cc3)CC2)c1", "condition met"),
    ("O=C(NC1(c2cccc(Cl)c2)CC1)c1cncc2c1cnn2-c1ccc(F)cc1", "condition met"),
    ("NC(=O)CNC(=O)c1cccc(C2(NC(=O)c3cncc4c3cnn4-c3ccc(F)cc3)CC2)c1", "condition not met"),
]

Q. Entry NCc1ccnc(C2(NC(=O)c3cncc4c3cnn4-c3ccc(F)cc3)CC2)c1 : is its pIC50 no less than 8?
A. condition not met

Q. Can O=C(NC1(c2noc(C3CC3)n2)CC1)c1cncc2c1cnn2-c1ccc(F)cc1 be said to have pIC50 at or above 8?
A. condition not met

Q. Does pIC50 meet or surpass 8 for NCc1ccc(C2(NC(=O)c3cncc4c3cnn4-c3ccc(F)cc3)CC2)nc1 ?
A. condition not met

Q. Kindly determine if pIC50 recorded for O=C(NC1(c2ccc(F)cc2)CCC1)c1cncc2c1cnn2-c1ccc(F)cc1 is above or exactly 8.
A. condition not met

Q. Identify whether the reported pIC50 of the following molecule is 8 or greater: O=C(NC1(c2ccc(Br)cc2)CC1)c1cncc2c1cnn2-c1ccc(F)cc1
A. condition met
